System: Staphylococcus aureus
Assay: Antimicrobial activity against Staphylococcus aureus ATCC 6538 by MTT assay
Type: functional
measured_endpoint: MIC50

INSERT INTO measurements (smiles_representation, system, measured_endpoint, reported) VALUES
  ('CCCC(=O)OC[C@H]1O[C@@H](n2cnc3c(N)ncnc32)[C@H](O)[C@@H]1O', 'Staphylococcus aureus', 'MIC50', '> 100 µg/mL'),
  ('CC1(C)O[C@@H]2[C@H](O1)[C@@H](COC(=O)Cc1ccccc1Cl)O[C@H]2n1cnc2c(N)ncnc21', 'Staphylococcus aureus', 'MIC50', '> 100 µg/mL'),
  ('Nc1ncnc2c1ncn2[C@@H]1O[C@H](COC(=O)Cc2ccc(F)cc2)[C@@H](O)[C@H]1O', 'Staphylococcus aureus', 'MIC50', '> 100 µg/mL'),
  ('Nc1ncnc2c1ncn2[C@@H]1O[C@H](COC(=O)Cc2ccccc2Cl)[C@@H](O)[C@H]1O', 'Staphylococcus aureus', 'MIC50', '> 100 µg/mL'),
  ('Cc1ccc(CC(=O)OC[C@H]2O[C@@H](n3cnc4c(N)ncnc43)[C@@H]3OC(C)(C)O[C@@H]32)cc1', 'Staphylococcus aureus', 'MIC50', '> 100 µg/mL'),
  ('Nc1ncnc2c1ncn2[C@@H]1O[C@H](COC(=O)c2ccc(Cl)cc2)[C@@H](O)[C@H]1O', 'Staphylococcus aureus', 'MIC50', '> 100 µg/mL'),
  ('Nc1ncnc2c1ncn2[C@@H]1O[C@H](COC(=O)Cc2ccccc2O)[C@@H](O)[C@H]1O', 'Staphylococcus aureus', 'MIC50', '37.8 µg/mL'),
  ('CC1(C)O[C@@H]2[C@H](O1)[C@@H](COC(=O)Cc1cccc(Br)c1)O[C@H]2n1cnc2c(N)ncnc21', 'Staphylococcus aureus', 'MIC50', '38.3 µg/mL');
